Tested target: NACHT, LRR and PYD domains-containing protein 3 (Mus musculus) (UniProt Q8R4B8)
Sequence (Q8R4B8 whole entry, the tested form may be a part): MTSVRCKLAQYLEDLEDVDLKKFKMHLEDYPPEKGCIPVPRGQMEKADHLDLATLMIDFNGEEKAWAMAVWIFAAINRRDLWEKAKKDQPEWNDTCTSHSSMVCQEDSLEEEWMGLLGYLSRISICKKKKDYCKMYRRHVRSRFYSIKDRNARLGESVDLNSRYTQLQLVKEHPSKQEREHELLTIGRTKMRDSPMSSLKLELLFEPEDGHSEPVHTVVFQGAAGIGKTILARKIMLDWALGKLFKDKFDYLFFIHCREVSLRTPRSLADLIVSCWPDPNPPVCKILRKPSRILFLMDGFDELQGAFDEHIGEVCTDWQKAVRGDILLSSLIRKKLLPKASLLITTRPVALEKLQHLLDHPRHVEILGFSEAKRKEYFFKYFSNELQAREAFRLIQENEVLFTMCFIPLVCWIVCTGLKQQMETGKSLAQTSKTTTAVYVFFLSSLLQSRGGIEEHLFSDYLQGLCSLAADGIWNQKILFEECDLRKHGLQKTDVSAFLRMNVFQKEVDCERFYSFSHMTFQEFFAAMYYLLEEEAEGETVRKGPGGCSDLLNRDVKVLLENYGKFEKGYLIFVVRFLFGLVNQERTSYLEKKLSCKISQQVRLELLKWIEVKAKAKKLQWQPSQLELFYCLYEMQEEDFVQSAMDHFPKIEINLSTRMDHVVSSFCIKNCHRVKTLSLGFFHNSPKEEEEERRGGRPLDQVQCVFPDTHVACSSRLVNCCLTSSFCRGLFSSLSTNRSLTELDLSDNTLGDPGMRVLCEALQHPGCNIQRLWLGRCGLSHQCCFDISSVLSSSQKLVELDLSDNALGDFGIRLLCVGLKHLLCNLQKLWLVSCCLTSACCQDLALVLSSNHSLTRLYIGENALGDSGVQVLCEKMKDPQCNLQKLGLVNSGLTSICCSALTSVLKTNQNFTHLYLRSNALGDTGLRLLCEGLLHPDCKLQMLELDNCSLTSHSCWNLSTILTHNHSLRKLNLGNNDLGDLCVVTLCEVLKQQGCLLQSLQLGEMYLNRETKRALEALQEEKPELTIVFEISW
Assay remarks: Inhibition of NLRP3 inflammasome activation in LPS-stimulated mouse J774A.1 cells assessed as inhibition of cell pyrolysis at 20 uM incubated for 1 hr followed by ATP addition and measured after 30 mins by Hoechst 33342/propidium iodide staining based high content screening method relative to control
Condition parameters: J774.A1, time 1.5 hrs
Item-by-item account of inhibition
Dear colleague, please return just the value in %, with no unit written.

Some entries whose results are on file:
{"columns": ["Smiles text", "Measure unit", "inhibition"],
 "data": [
  ["O=[N+]([O-])/C=C/c1ccc2c(c1)OCO2", "%", 89.2],
  ["COCCCOc1ccc(/C=C/c2cc(OC)cc(OC)c2/C=C/[N+](=O)[O-])cc1", "%", 53.7],
  ["COc1ccc(NC(=O)COc2ccc(/C=C/c3cc(OC)cc(OC)c3/C=C/[N+](=O)[O-])cc2)cc1", "%", 15.1],
  ["COc1cc(/C=C/c2ccc(OCC(=O)NC3CCN(C(=O)OC(C)(C)C)CC3)cc2)c(/C=C/[N+](=O)[O-])c(OC)c1", "%", 42.3],
  ["COc1cc(/C=C/c2ccc(OCc3ccc(C(F)(F)F)cc3)cc2)cc(OC)c1", "%", 8.51]
]}

-- ask Dear colleague, I am looking for the recorded inhibition of the following compound: COc1cc(/C=C/c2ccc(N)cc2)c(/C=C/[N+](=O)[O-])c(OC)c1
-- reply 75.3

-- ask Would you kindly repeat that for COc1cc(/C=C/c2ccc(OCC(=O)NCCc3ccccc3)cc2)c(/C=C/[N+](=O)[O-])c(OC)c1 ?
-- reply 46.2

-- ask Consider next the compound COc1cc(/C=C/c2ccc(OCC(=O)Nc3ccc(Br)cc3)cc2)c(/C=C/[N+](=O)[O-])c(OC)c1 in the same way.
-- reply 26.2

Source of measurements: ChEMBL document CHEMBL4831528
